# experimental system: Serine/threonine-protein kinase Sgk2 (Homo sapiens) (UniProt Q9HBY8)
# Sequence (Q9HBY8 whole entry): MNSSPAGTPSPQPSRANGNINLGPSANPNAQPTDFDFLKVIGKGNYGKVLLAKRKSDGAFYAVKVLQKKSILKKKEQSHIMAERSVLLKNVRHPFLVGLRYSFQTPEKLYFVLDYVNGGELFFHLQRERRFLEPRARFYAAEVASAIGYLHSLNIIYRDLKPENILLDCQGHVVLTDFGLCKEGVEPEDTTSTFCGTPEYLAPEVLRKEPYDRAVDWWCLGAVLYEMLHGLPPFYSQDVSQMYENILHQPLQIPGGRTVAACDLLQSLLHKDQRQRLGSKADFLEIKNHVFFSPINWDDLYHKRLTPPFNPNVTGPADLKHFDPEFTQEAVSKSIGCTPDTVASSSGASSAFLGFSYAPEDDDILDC
# details: at 10 µM

smiles string	residual activity (%)
O=C1c2ccccc2-[n+]2ccc3c([nH]c4ccccc43)c21	76
O=C1NC(=O)/C(=C/c2ccc3c(c2)OC(F)(F)O3)S1	85
COc1cc2ncnc(N3CCN(C(=O)Nc4ccc(Oc5ccccc5)cc4)CC3)c2cc1OC	141
COc1cc2ncnc(Nc3ccc(O)c(Br)c3)c2cc1OC	48
CCC(=O)Nc1ccc2ncnc(Nc3cccc(Br)c3)c2c1	77
COc1ccc(OC)c2c(=S)c3ccccc3[nH]c12	93
O=C1NC(=O)c2c1c1c3ccccc3[nH]c1c1[nH]c3cc(Br)ccc3c21	69
O=C1NC(=O)c2cc(Nc3ccc(F)cc3)c(Nc3ccc(F)cc3)cc21	67
CC(C)n1cnc2c(NCc3ccccc3)nc(NCCCO)nc21	67
Nc1n[nH]c2nnc(-c3c(-c4ccccc4)nn4ccccc34)cc12	64
COc1cccc(-c2cc(=O)c3ccccc3o2)c1N	95
N#C/C(=C(\N)Sc1ccc(N)cc1)c1ccccc1C(F)(F)F	117
CO[C@H]1C[C@@H]2CC[C@@H](C)[C@@](O)(O2)C(=O)C(=O)N2CCCC[C@H]2C(=O)O[C@H]([C@H](C)C[C@@H]2CC[C@@H](O)[C@H](OC)C2)CC(=O)[C@H](C)/C=C(\C)[C@@H](O)[C@@H](OC)C(=O)[C@H](C)C[C@H](C)/C=C/C=C/C=C/1C	149
NC(=O)c1ccc2[nH]c(-c3ccc(Oc4ccc(Cl)cc4)cc3)nc2c1	104
O=C1NC(=O)/C(=C\c2ccc3nccnc3c2)S1	75

----------
Below is a list of entries, each paired with its recorded residual activity value.
# experimental system: Myotonin-protein kinase (Homo sapiens)
# details: at 1 µM
measured quantity: residual activity (%)

> print(dat)
                              smiles.string  assay.value
1  CO[C@H]1[C@@H](OC)C[C@H](C)[C@@H](OC)C2=CC(=O)C=C(NC(=O)/C(C)=C/C=C/[C@H](OC)[C@@H](OC(N)=O)/C(C)=C/[C@@H]1C)C2=O          147
2          c1ccc(-c2n[nH]c3c2oc2ccccc23)cc1          146
3            Cc1nc(-c2ccccc2)c(-c2ccncc2)o1          104

----------
# experimental system: Serine/threonine-protein kinase SIK1 (Homo sapiens) (UniProt P57059)
# Sequence (P57059 whole entry): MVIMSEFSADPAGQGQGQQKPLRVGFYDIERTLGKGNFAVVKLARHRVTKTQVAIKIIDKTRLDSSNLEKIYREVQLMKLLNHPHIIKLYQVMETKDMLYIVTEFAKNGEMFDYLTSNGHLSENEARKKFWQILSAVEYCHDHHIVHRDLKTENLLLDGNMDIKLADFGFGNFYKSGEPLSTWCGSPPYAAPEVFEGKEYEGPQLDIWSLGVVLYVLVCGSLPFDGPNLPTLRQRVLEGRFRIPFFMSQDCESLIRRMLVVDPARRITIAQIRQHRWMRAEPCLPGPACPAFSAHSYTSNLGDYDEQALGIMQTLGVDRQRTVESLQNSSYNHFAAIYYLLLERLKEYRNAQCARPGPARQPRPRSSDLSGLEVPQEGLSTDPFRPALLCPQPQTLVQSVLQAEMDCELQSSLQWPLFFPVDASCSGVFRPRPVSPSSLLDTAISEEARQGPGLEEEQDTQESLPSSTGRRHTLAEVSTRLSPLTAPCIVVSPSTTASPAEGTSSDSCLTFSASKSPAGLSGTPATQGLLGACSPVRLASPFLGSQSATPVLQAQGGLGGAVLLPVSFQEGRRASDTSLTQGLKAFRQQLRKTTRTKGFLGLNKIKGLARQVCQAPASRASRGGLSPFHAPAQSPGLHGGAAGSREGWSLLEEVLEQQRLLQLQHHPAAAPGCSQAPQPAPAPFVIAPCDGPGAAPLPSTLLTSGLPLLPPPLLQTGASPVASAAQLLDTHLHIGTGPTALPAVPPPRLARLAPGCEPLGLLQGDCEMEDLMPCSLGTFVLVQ
# details: at 10 µM
Could you please mark 1 for values of residual activity below 20% and -1 for values at or above it?

> print(dat)
                               smiles.string                       experimental.system  category.label
 1      COc1cc2ncnc(Nc3ccc(O)c(Br)c3)c2cc1OC  Serine/threonine-protein kinase SIK1 (Homo sapiens) (UniProt P57059)              -1
 2              Oc1c2ccccc2c2c3c(cccc13)N=N2  Serine/threonine-protein kinase SIK1 (Homo sapiens) (UniProt P57059)              -1
 3  N#Cc1cnc2cnc(NCc3cccnc3)cc2c1Nc1ccc(F)c(Cl)c1  Serine/threonine-protein kinase SIK1 (Homo sapiens) (UniProt P57059)              -1
 4  Oc1n[nH]c2nnc(-c3c(-c4ccccc4)nn4ccccc34)cc12  Serine/threonine-protein kinase SIK1 (Homo sapiens) (UniProt P57059)              -1
 5  O=C1NC(=O)c2cc(Nc3ccc(F)cc3)c(Nc3ccc(F)cc3)cc21  Serine/threonine-protein kinase SIK1 (Homo sapiens) (UniProt P57059)               1
 6  COc1ccc(CNc2nc(N(CCO)CCO)nc3c2ncn3C(C)C)cc1  Serine/threonine-protein kinase SIK1 (Homo sapiens) (UniProt P57059)              -1
 7              Cc1ccc(S(=O)(=O)/C=C/C#N)cc1  Serine/threonine-protein kinase SIK1 (Homo sapiens) (UniProt P57059)              -1
 8      c1ccc(-c2n[nH]cc2-c2ccnc3ccccc23)nc1  Serine/threonine-protein kinase SIK1 (Homo sapiens) (UniProt P57059)              -1
 9  O=C1Nc2cc(Br)ccc2/C1=C1/Nc2ccccc2/C1=N\O  Serine/threonine-protein kinase SIK1 (Homo sapiens) (UniProt P57059)               1
10         O=C1NC(=O)/C(=C\c2ccc3nccnc3c2)S1  Serine/threonine-protein kinase SIK1 (Homo sapiens) (UniProt P57059)              -1
11          c1ccc(-c2n[nH]c3c2oc2ccccc23)cc1  Serine/threonine-protein kinase SIK1 (Homo sapiens) (UniProt P57059)               1
12   Cc1cc(Nc2nc(-c3ccccc3)nc3ccccc23)n[nH]1  Serine/threonine-protein kinase SIK1 (Homo sapiens) (UniProt P57059)               1
13               Cc1cc2ncc(-c3ccccc3)nc2cc1C  Serine/threonine-protein kinase SIK1 (Homo sapiens) (UniProt P57059)              -1
14  O=Nc1c(-c2c(O)[nH]c3ccccc23)[nH]c2ccccc12  Serine/threonine-protein kinase SIK1 (Homo sapiens) (UniProt P57059)               1
